All values here come from PubChem BioAssay (NCI).

Measured growth accompanies every entry in the list below.
System: IGROV1 ovarian
Assay Text: NCI-60 one-dose screen, 48 h (100 = growth as untreated, 0 = no growth, -100 = all killed)
Test Context: 10 µM unless noted
Compounds without any hit were thinned out: in the full panel of roughly 83,000, 20% have a hit.
Return type: number; implicit unit %.

// known answers, use as guide
In [3]: df
Out[3]:
                                   compound   tested_system  test_value
0  COC(=O)[C@@H](NC(=O)c1cn(CCC2CCCCC2)c2ccccc12)C(C)(C)C  IGROV1 ovarian        62.3
1  COC(=O)[C@@H](C)C[C@H](Cc1ccccc1)NC(=O)c1csc([C@@H](C[C@H](C(C)C)N(C)C(=O)[C@@H](NC(=O)[C@H]2CCCCN2C)C2CC2)OC(C)=O)n1  IGROV1 ovarian        30.8
2  COc1ccc(-n2c(C)nc3cc(OC)c(OC)cc3c2=O)cc1OC  IGROV1 ovarian         102
3  CC(CO)NC1CCCCC1 (configuration not stated)  IGROV1 ovarian         102
4            CCOc1ccc(/C=C/[N+](=O)[O-])cc1  IGROV1 ovarian        86.5
5  CC1CCCC(C[N+](C)(C)C)C1=O (configuration not stated)  IGROV1 ovarian        92.3
6           CC(C)CCC1(CCCl)C(=O)NC(=O)NC1=O  IGROV1 ovarian         108
7                    CC(=O)[O][Hg][O]C(C)=O  IGROV1 ovarian        53.2
8  COC(=O)C12CC(NC(=O)c3csc([C@@H](C[C@H](C(C)C)N(C)C(=O)[C@@H](NC(=O)[C@H]4CCCCN4C)C(C)C)OC(C)=O)n3)(C1)C2  IGROV1 ovarian        19.3
9  C[CH2][Sn]([Cl])([Cl])[CH2]C.Oc1ccccc1C=NCCN=Cc1ccccc1O  IGROV1 ovarian        98.9

Input line: growth lookup needed for Cc1ccc(S(=O)(=O)F)cc1C(=O)O , thanks.
Output line: 102

Input line: Please answer likewise for C#C[C@]1(OC(=O)CCCCCC)CC[C@H]2[C@@H]3CCC4=CC(=O)CC[C@@H]4[C@H]3CC[C@@]21C
Output line: 42.5

Input line: Please answer likewise for COc1cc2ncnc(Nc3ccc(F)c(Cl)c3)c2cc1OCC(=O)N1CCN(C)CC1
Output line: 48.2

Input line: Please answer likewise for O=C(c1cccc(O)c1O)c1cn(Cc2ccc(F)cc2)c2cccc(O)c12
Output line: -42.8

Input line: Please answer likewise for CC[C@H](NC(=O)[C@H]1CCCCN1C)C(=O)N(C)[C@H](C[C@@H](OC(C)=O)c1nc(C(=O)N[C@@H](Cc2ccccc2)C[C@H](C)C(=O)O)cs1)C(C)C
Output line: 25.3

Input line: Please answer likewise for CN1CC(=O)N(O)C1(C)c1cccnc1 (configuration not stated)
Output line: 102

Input line: Please answer likewise for Cc1cc(N(CCCl)CCCl)ccc1C=Nc1cccnc1
Output line: 99.2
